System: Brain
Assay name: Biodistribution in brain of B16F0 tumor bearing C57BL/6J mouse at 0.37-0.74 MBq, iv after 1 hr
Type: ADME, organism-based
Measurement parameters: in vivo
Observation type: Drug uptake (% ID/g)

In the examples that follow, each entry is paired with its recorded Drug uptake.
{"Molecule": "CCN(CC)CCNC(=O)c1cc([123I])c(NC(C)=O)cc1OC", "Drug uptake, % ID/g": 0.13}
{"Molecule": "COc1cc(NC(C)=O)c([123I])cc1C(=O)NCCCCN1CC2CCC1C2 (stereo not drawn)", "Drug uptake, % ID/g": 0.08}
{"Molecule": "CCN(CC)CCNC(=O)c1ccccc1[123I]", "Drug uptake, % ID/g": 1.3}
{"Molecule": "O=C(NCCCCN1CC2CCC1C2)c1ccc([123I])cc1 (stereo not drawn)", "Drug uptake, % ID/g": 0.1}
{"Molecule": "CCCCN(C)CCCCNC(=O)c1cc([123I])c(NC(C)=O)cc1OC", "Drug uptake, % ID/g": 0.07}
{"Molecule": "CCN(CC)CCNC(=O)c1cc([123I])c(NS(=O)(=O)c2ccc(C)cc2)cc1OC", "Drug uptake, % ID/g": 0.03}

I: COc1cc(NC(C)=O)c([123I])cc1C(=O)NCCCCN(C)C(C)C
II: CCCN(CCC)CCCCNC(=O)c1ccc([123I])cc1
[ask] Could you kindly indicate whether I or II has the higher Drug uptake value? Mark your selection by writing its label.
[reply] II
(II: 0.5 % ID/g, I: 0.07 % ID/g)

Cited source: ChEMBL document CHEMBL1146219
